# measured.on: S. aureus SPase (Staphylococcus aureus)
# experiment.notes: biochemical
pIC50: −log10 of the molar value. Square brackets hold non-standard residues; d marks the D form. Peptide text beside a SMILES is read from it. * marks the point of attachment. ξ: configuration not given here. Biphenylcarbonyl(4'-Bu) = CCCCc1ccc(-c2ccc(C(=O)*)cc2)cc1; X1 = C[C@H](N*)B1OC2C[C@@H]3C[C@@H](C3(C)C)[C@]2(C)O1; Benzoyl(4-(4-Cl-Ph)) = O=C(c1ccc(-c2ccc(Cl)cc2)cc1)*; X8 = C[C@H](N*)C(=O)C(N)=O; boroAla = C[C@H](N*)B(O)O; Dap = NC[C@H](N)C(=O)O; ξK = NCCCCC(N)C(=O)O; βAla = NCCC(=O)O
outcome.measure: pIC50

{"columns": ["compound", "value.reported"],
 "data": [
  ["CCCCc1ccc(-c2ccc(C(=O)N[C@@H](Cc3c[nH]cn3)C(=O)N[C@H](C(=O)N[C@@H](C)C(=O)N[C@@H](CCCCN)C(=O)N[C@@H](C)B3OC4C[C@@H]5C[C@@H](C5(C)C)[C@]4(C)O3)[C@@H](C)O)cc2)cc1 (stereo partly shown) [Compound 143] ({Biphenylcarbonyl(4'-Bu)}-HTAK-X1)", 6.74],
  ["CC(C)C[C@H](NC(=O)[C@H](C)NC(=O)[C@H](CN)NC(=O)[C@H](CN)NC(=O)c1ccc(-c2ccc(Cl)cc2)cc1)C(=O)N[C@@H](C)B(O)O [Compound 176] ({Benzoyl(4-(4-Cl-Ph))}-[Dap][Dap]AL-boroAla)", 5.92],
  ["CCCCc1ccc(-c2ccc(C(=O)NCCC(=O)N[C@@H](CCCCN)C(=O)N3CCC[C@H]3C(=O)N[C@@H](C)C(=O)N[C@@H](CCCCN)C(=O)N[C@@H](C)B(O)O)cc2)cc1 [Compound 221] ({Biphenylcarbonyl(4'-Bu)-βAla}-KPAK-boroAla)", 6.89],
  ["CCCCc1ccc(-c2ccc(C(=O)NC(CCCCN)C(=O)N[C@@H](CCCCN)C(=O)N[C@@H](C)C(=O)N[C@@H](CC(C)C)C(=O)N[C@@H](C)C(=O)C(N)=O)cc2)cc1 (stereo partly shown) [Compound 253] ({Biphenylcarbonyl(4'-Bu)}-[ξK]KAL-X8)", 5.68]
]}

* * *

# System: Methicillin Resistant Staphylococcus aureus strain USA 300 (NRS384)
# condition: Method A; MRSA USA 300 (NRS384); 35° C., 22 hours
Square brackets hold non-standard residues; d marks the D form. Peptide text beside a SMILES is read from it. * marks the point of attachment. ξ: configuration not given here. Biphenylcarbonyl(4'-Bu) = CCCCc1ccc(-c2ccc(C(=O)*)cc2)cc1; X1 = C[C@H](N*)B1OC2C[C@@H]3C[C@@H](C3(C)C)[C@]2(C)O1; Benzoyl(4-hexyl) = CCCCCCc1ccc(C(=O)*)cc1; X5 = C[C@H](N*)B1OC2C3CCC(C3(C)C)C2(C)O1; NMeThr(3ξ) = CN[C@H](C(=O)O)C(C)O; Myristoyl = CCCCCCCCCCCCCC(=O)*; Thr(3ξ) = CC(O)[C@H](N)C(=O)O; Decanoyl = CCCCCCCCCC(=O)*; boroGly = OB(O)CN*; βAla = NCCC(=O)O; ξA = CC(N)C(=O)O
Entries and their MIC (μg/mL) S. aureus values follow.

{"columns": ["compound", "MIC (μg/mL) S. aureus"],
 "data": [
  ["CCCCCCCCCC(=O)N[C@@H](CC(C)C)C(=O)N[C@H](C(=O)N1CCC[C@@H]1C(=O)N[C@H](C(=O)N[C@@H](C)C(=O)N[C@@H](Cc1ccc(O)cc1)C(=O)NC(C)C=O)C(C)O)C(C)O (stereo partly shown) [Compound 109] (Decanoyl-L[Thr(3ξ)][dP][Thr(3ξ)]AY[ξA]-aldehyde)", ">64 µg/mL"],
  ["CCCCCCCCCCCCCC(=O)N[C@@H](CC(C)C)C(=O)N[C@H](C(=O)N1CCC[C@@H]1C(=O)N[C@H](C(=O)N[C@@H](C)C(=O)N[C@@H](Cc1ccc(O)cc1)C(=O)NC(C)C(=O)C(=O)NC)C(C)O)C(C)O (mixture of isomers) [Compound 112]", ">64 µg/mL"],
  ["CCCCCCCCCCCCCC(=O)N[C@H](CO)C(=O)N[C@H](C)C(=O)NCC(=O)N(C)[C@H](C(=O)N[C@@H](C)C(=O)N[C@@H](CC(C)C)C(=O)N[C@@H](C)B1OC2C3CCC(C3(C)C)C2(C)O1)C(C)O (stereo partly shown) [Compound 123] (Myristoyl-[dS][dA]G[NMeThr(3ξ)]AL-X5)", "64 µg/mL"],
  ["CCCCc1ccc(-c2ccc(C(=O)NCCC(=O)N[C@@H](CCCCN)C(=O)N[C@H](C(=O)N[C@@H](C)C(=O)N[C@@H](CC(N)=O)C(=O)N[C@@H](C)B3OC4C[C@@H]5C[C@@H](C5(C)C)[C@]4(C)O3)C(C)O)cc2)cc1 (stereo partly shown) [Compound 121] ({Biphenylcarbonyl(4'-Bu)-βAla}-K[Thr(3ξ)]AN-X1)", "0.25 µg/mL"],
  ["CCCCc1ccc(-c2ccc(C(=O)NCCC(=O)N[C@@H](CCCCN)C(=O)N[C@H](C(=O)N[C@@H](C)C(=O)N[C@@H](CC(N)=O)C(=O)NCB(O)O)C(C)O)cc2)cc1 (stereo partly shown) [Compound 118] ({Biphenylcarbonyl(4'-Bu)-βAla}-K[Thr(3ξ)]AN-boroGly)", "0.71 µg/mL"],
  ["CCCCCCc1ccc(C(=O)N[C@H](CO)C(=O)N[C@H](C)C(=O)NCC(=O)N(C)[C@H](C(=O)N[C@@H](C)C(=O)N[C@@H](CC(N)=O)C(=O)NCC=O)C(C)O)cc1 (stereo partly shown) [Compound 101] ({Benzoyl(4-hexyl)}-[dS][dA]G[NMeThr(3ξ)]ANG-aldehyde)", ">64 µg/mL"],
  ["CCCCCCCCCCCCCC(=O)N[C@@H](CC(C)C)C(=O)N[C@H](C(=O)N1CCC[C@@H]1C(=O)N[C@H](C(=O)N[C@@H](C)C(=O)N[C@@H](Cc1ccc(O)cc1)C(=O)NCC=O)C(C)O)C(C)O (stereo partly shown) [Compound 105] (Myristoyl-L[Thr(3ξ)][dP][Thr(3ξ)]AYG-aldehyde)", ">64 µg/mL"]
]}

* * *

Measured IC50, listed per entry.
# measured.on: S. aureus SPase (Staphylococcus aureus)
# experiment.notes: biochemical
Numbered stars: 1 amine (or outer) side, 2 acyl side, 3 side chain; on linkers, the order of the positions; unused ones are H or OH. Square brackets hold non-standard residues; d marks the D form. Peptide text beside a SMILES is read from it. * marks the point of attachment. ξ: configuration not given here. Biphenylcarbonyl(4'-Bu) = CCCCc1ccc(-c2ccc(C(=O)*)cc2)cc1; X1 = C[C@H](N*)B1OC2C[C@@H]3C[C@@H](C3(C)C)[C@]2(C)O1; ξPro(4S-NH2) = O=C(C1C[C@H](N[*:3])CN1[*:1])[*:2]

{"columns": ["compound", "IC50 / nM"],
 "data": [
  ["CCCCc1ccc(-c2ccc(C(=O)N3C[C@@H](N)CC3C(=O)N[C@H](C(=O)N[C@@H](C)C(=O)N[C@@H](CC(N)=O)C(=O)N[C@@H](C)B3OC4C[C@@H]5C[C@@H](C5(C)C)[C@]4(C)O3)[C@@H](C)O)cc2)cc1 (stereo partly drawn) [Compound 139] ({Biphenylcarbonyl(4'-Bu)}-[ξPro(4S-NH2)]TAN-X1)", 8.5],
  ["CCCCc1ccc(-c2ccc(CN[C@@H](CCN)C(=O)N[C@H](C(=O)N[C@@H](C)C(=O)N[C@@H](CCCCN)C(=O)N[C@@H](C)B(O)O)[C@@H](C)O)cc2)cc1", 33]
]}

* * *

# measured.on: E. coli SPase (Escherichia coli, UniProt P00803)
# experiment.notes: Biochemical SPase activity assay (fluorogenic peptide substrate), E. coli enzyme
pIC50: −log10 of the molar value. Square brackets hold non-standard residues; d marks the D form. Peptide text beside a SMILES is read from it. * marks the point of attachment. ξ: configuration not given here. boroAla((+)-pinanediol) = C[C@H](N*)B1O[C@@H]2C[C@@H]3C[C@@H](C3(C)C)[C@]2(C)O1; Biphenylcarbonyl(4'-Bu) = CCCCc1ccc(-c2ccc(C(=O)*)cc2)cc1; X1 = C[C@H](N*)B1OC2C[C@@H]3C[C@@H](C3(C)C)[C@]2(C)O1; Benzoyl(4-hexyl) = CCCCCCc1ccc(C(=O)*)cc1; X19 = O=C(CCCCC12CC3CC(CC(C3)C1)C2)*; X21 = CCCCc1ccc(-c2ncc(C(=O)*)s2)cc1; NMeThr(3ξ) = CN[C@H](C(=O)O)C(C)O; Thr(3ξ) = CC(O)[C@H](N)C(=O)O; NMeV = CN[C@H](C(=O)O)C(C)C; boroAla = C[C@H](N*)B(O)O; Dab = NCC[C@H](N)C(=O)O; Dap = NC[C@H](N)C(=O)O; boroGly = OB(O)CN*; βAla = NCCC(=O)O
Answer 0 (no) if pIC50 is under 7, and 1 (yes) if it is 7 or more.

{"columns": ["compound", "discrete.label"],
 "data": [
  ["CCCCc1ccc(-c2ccc(CN[C@@H](CCN)C(=O)N[C@H](C(=O)N[C@@H](C)C(=O)N[C@@H](CCCCN)C(=O)N[C@@H](C)B(O)O)[C@@H](C)O)cc2)cc1", "1 (yes)"],
  ["CCCCc1ccc(-c2ccc(C(=O)N[C@H](CO)C(=O)N[C@H](C)C(=O)NCC(=O)N(C)[C@H](C(=O)N[C@@H](C)C(=O)N[C@@H](CC(N)=O)C(=O)N[C@@H](C)B3OC4C[C@@H]5C[C@@H](C5(C)C)[C@]4(C)O3)C(C)C)cc2)cc1 (some centres unmarked) [Compound 230] ({Biphenylcarbonyl(4'-Bu)}-[dS][dA]G[NMeV]AN-X1)", "0 (no)"],
  ["CCCCc1ccc(-c2ccc(C(=O)N[C@@H](CCN)C(=O)N[C@@H](CCN)C(=O)N[C@@H](C)C(=O)N[C@@H](CC(C)C)C(=O)N[C@@H](C)B3O[C@@H]4C[C@@H]5C[C@@H](C5(C)C)[C@]4(C)O3)cc2)cc1 [Compound 171] ({Biphenylcarbonyl(4'-Bu)}-[Dab][Dab]AL-{boroAla((+)-pinanediol)})", "1 (yes)"],
  ["CCCCc1ccc(-c2ccc(C(=O)N[C@H](CO)C(=O)N[C@H](C)C(=O)N3CCC[C@H]3C(=O)N[C@H](C(=O)N[C@@H](C)C(=O)N[C@@H](CC(N)=O)C(=O)NCB(O)O)C(C)O)cc2)cc1 (some centres unmarked) [Compound 116] ({Biphenylcarbonyl(4'-Bu)}-[dS][dA]P[Thr(3ξ)]AN-boroGly)", "0 (no)"],
  ["CCCCc1ccc(-c2ccc(C(=O)NCCC(=O)N[C@@H](CCCCN)C(=O)N[C@H](C(=O)N[C@@H](C)C(=O)N[C@H](C(=O)N[C@@H](C)B3O[C@@H]4C[C@@H]5C[C@@H](C5(C)C)[C@]4(C)O3)C(C)C)[C@@H](C)O)cc2)cc1 [Compound 194] ({Biphenylcarbonyl(4'-Bu)-βAla}-KTAV-{boroAla((+)-pinanediol)})", "1 (yes)"],
  ["CCCCc1ccc(-c2ccc(C(=O)N[C@H](CO)C(=O)N[C@H](C)C(=O)NCC(=O)N[C@H](C(=O)N[C@@H](C)C(=O)N[C@@H](CC(N)=O)C(=O)NCB(O)O)C(C)O)cc2)cc1 (some centres unmarked) [Compound 115] ({Biphenylcarbonyl(4'-Bu)}-[dS][dA]G[Thr(3ξ)]AN-boroGly)", "0 (no)"],
  ["CCCCCCc1ccc(C(=O)N[C@H](CO)C(=O)N[C@H](C)C(=O)NCC(=O)N(C)[C@H](C(=O)N[C@@H](C)C(=O)N[C@@H](CC(C)C)C(=O)NCC=O)C(C)O)cc1 (some centres unmarked) [Compound 102] ({Benzoyl(4-hexyl)}-[dS][dA]G[NMeThr(3ξ)]ALG-aldehyde)", "0 (no)"],
  ["CCCCc1ccc(-c2ccc(C(=O)N[C@@H](CCCCN)C(=O)N[C@@H](CCN)C(=O)N[C@@H](C)C(=O)N[C@@H](CC(C)C)C(=O)N[C@@H](C)B(O)O)cc2)cc1 [Compound 161] ({Biphenylcarbonyl(4'-Bu)}-K[Dab]AL-boroAla)", "1 (yes)"],
  ["C[C@H](NC(=O)[C@H](CCCCN)NC(=O)[C@H](C)NC(=O)[C@@H](NC(=O)[C@H](CCN)NC(=O)CCCCC12CC3CC(CC(C3)C1)C2)[C@@H](C)O)B1OC2C[C@@H]3C[C@@H](C3(C)C)[C@]2(C)O1 (some centres unmarked) [Compound 239] (X19-[Dab]TAK-X1)", "1 (yes)"],
  ["CCCCc1ccc(-c2ccc(C(=O)N[C@@H](CN)C(=O)N[C@@H](CCCCN)C(=O)N[C@@H](C)C(=O)N[C@@H](CCCCN)C(=O)N[C@@H](C)B3O[C@@H]4C[C@@H]5C[C@@H](C5(C)C)[C@]4(C)O3)cc2)cc1 [Compound 184] ({Biphenylcarbonyl(4'-Bu)}-[Dap]KAK-{boroAla((+)-pinanediol)})", "1 (yes)"],
  ["CCCCc1ccc(-c2ccc(CNCCC(=O)N[C@H](C(=O)N[C@@H](C)C(=O)N[C@@H](CCCCN)C(=O)N[C@@H](C)B3O[C@@H]4C[C@@H]5C[C@@H](C5(C)C)[C@]4(C)O3)[C@@H](C)O)cc2)cc1", "0 (no)"],
  ["CCCCc1ccc(Nc2ccc(C(=O)N[C@@H](CCN)C(=O)N[C@H](C(=O)N[C@@H](C)C(=O)N[C@@H](CCCCN)C(=O)N[C@@H](C)B3OC4C[C@@H]5C[C@@H](C5(C)C)[C@]4(C)O3)[C@@H](C)O)cc2)cc1 (some centres unmarked)", "1 (yes)"],
  ["CCCCc1ccc(-c2ncc(C(=O)N[C@@H](CCN)C(=O)N[C@H](C(=O)N[C@@H](C)C(=O)N[C@@H](CCCCN)C(=O)N[C@@H](C)B3OC4C[C@@H]5C[C@@H](C5(C)C)[C@]4(C)O3)[C@@H](C)O)s2)cc1 (some centres unmarked) [Compound 248] (X21-[Dab]TAK-X1)", "1 (yes)"]
]}
